biological target: human recombinant adrenergic α2A receptor (Homo sapiens, UniProt P08913); construct: expressed in transfected cells; host or cells: insect Sf9 cells; assay: Radioligand binding, adrenergic α2A ([3H]MK-912); details: read-out: Percentage inhibition of ligand binding, Adrenergic α2A (0.03 μM), compound at 0.03 μM; [3H]MK-912; repeat datapoints each shown
Sequence (P08913 whole entry): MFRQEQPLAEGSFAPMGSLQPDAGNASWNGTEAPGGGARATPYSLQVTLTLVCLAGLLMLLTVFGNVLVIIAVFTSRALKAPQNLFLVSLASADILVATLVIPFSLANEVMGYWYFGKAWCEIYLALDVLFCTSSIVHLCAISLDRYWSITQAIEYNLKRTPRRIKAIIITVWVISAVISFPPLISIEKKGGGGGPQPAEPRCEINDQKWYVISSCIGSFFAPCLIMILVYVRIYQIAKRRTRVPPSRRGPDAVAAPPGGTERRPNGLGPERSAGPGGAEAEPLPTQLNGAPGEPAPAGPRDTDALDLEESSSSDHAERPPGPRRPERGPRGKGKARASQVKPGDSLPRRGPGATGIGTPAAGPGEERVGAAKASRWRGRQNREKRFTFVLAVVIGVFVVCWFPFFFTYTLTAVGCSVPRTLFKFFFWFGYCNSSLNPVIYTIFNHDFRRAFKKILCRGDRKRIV
Rule: class 1 for inhibition at 0.03 µM not less than 40%, class 0 for anything less.

Use the examples below as a reference point.
Molecule	Target under test	Discrete label
Cc1ccc2c(c1)c1c(n2C2=C(c3ccc(C)s3)CCC2)CCN(C)C1	human recombinant adrenergic α2A receptor (Homo sapiens, UniProt P08913)	class 1
CN1CCc2c(c3cc(F)ccc3n2CCc2ccc(F)cc2)C1	human recombinant adrenergic α2A receptor (Homo sapiens, UniProt P08913)	class 1
Cc1ccc2c(c1)c1c(n2CC(O)c2ccncc2C)CCN(C)C1 (single isomer, unassigned) [133b]	human recombinant adrenergic α2A receptor (Homo sapiens, UniProt P08913)	class 0
Cc1ccc2c(c1)c1c(n2CNc2ccccn2)CCN(C)C1	human recombinant adrenergic α2A receptor (Homo sapiens, UniProt P08913)	class 0
C/C(=C\n1c2c(c3cc(C)ccc31)CN(C)CC2)c1sccc1C	human recombinant adrenergic α2A receptor (Homo sapiens, UniProt P08913)	class 1
Cc1ccc2c(c1)c1c(n2CCc2ccc(C)nc2)CCN2CCCC12 (single isomer, unassigned) [197b]	human recombinant adrenergic α2A receptor (Homo sapiens, UniProt P08913)	class 1
COc1ccc(CCn2c3c(c4cc(C)ccc42)CN(C)CC3)cc1	human recombinant adrenergic α2A receptor (Homo sapiens, UniProt P08913)	class 1
Cc1ccc2c(c1)c1c(n2C2=C(c3ccc4c(ccn4C)c3)CCC2)CCN(C)C1	human recombinant adrenergic α2A receptor (Homo sapiens, UniProt P08913)	class 1
Cc1ccc2c(c1)c1c(n2CC(C)(O)c2ccc(C)nc2)CN(C)CC1 (single isomer, unassigned) [196a]	human recombinant adrenergic α2A receptor (Homo sapiens, UniProt P08913)	class 0
C/C(=C\n1c2c(c3cc(C)ccc31)CN(C)CC2)c1ccc(C)nc1	human recombinant adrenergic α2A receptor (Homo sapiens, UniProt P08913)	class 1

## Task Identify whether the reported inhibition at 0.03 µM of the following molecule is 40% or greater: C/C(=C\n1c2c(c3cc(C)cc(C)c31)CN(C)CC2)c1ccc(C)nc1
## Result class 0

## Task Check Cc1ccc2c(c1)c1c(n2CC(C)(O)c2ccc(C)nc2)CCN2CCCC12 (single isomer, unassigned) [II-128b] too.
## Result class 1

## Task // query: Cc1cc(C)c2c(c1)c1c(n2CC(O)c2ccncc2)CCN2CCCC12 (single isomer, unassigned) [II-125b]
## Result class 1

----------
target: rat adrenergic α1B receptor (Rattus norvegicus); construct: rat adrenergic α1B receptor obtained from Wistar Rat liver; from tissue; host or cells: Wistar rat liver; experiment: Radioligand binding, adrenergic α1B ([3H]Prazosin); conditions: read-out: Percentage inhibition of ligand binding, Adrenergic α1B (0.03 μM), compound at 0.03 μM; [3H]Prazosin; repeat datapoints each shown
Sequence (P15823 whole entry): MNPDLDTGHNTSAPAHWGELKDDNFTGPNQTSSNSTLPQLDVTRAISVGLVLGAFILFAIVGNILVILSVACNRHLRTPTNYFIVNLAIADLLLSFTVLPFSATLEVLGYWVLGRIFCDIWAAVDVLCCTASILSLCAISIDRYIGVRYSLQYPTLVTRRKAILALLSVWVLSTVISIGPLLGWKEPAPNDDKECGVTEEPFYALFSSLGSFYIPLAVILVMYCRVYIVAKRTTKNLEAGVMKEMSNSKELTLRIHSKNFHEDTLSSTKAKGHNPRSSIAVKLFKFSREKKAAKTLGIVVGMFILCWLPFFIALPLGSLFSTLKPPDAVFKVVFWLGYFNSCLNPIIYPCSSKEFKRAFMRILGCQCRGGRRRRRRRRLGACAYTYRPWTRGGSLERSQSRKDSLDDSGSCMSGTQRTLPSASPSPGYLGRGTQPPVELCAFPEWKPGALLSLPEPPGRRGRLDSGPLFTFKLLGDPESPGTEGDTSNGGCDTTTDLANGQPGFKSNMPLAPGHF
Reported metric: inhibition at 0.03 µM

Molecule	Data value
Cc1cnc2c(c1)c1c(n2CCc2cccnc2)CCN2CCCC12 (single isomer, unassigned) [134b]	78%
Cc1ccc2c(c1)c1c(n2CCc2ccccc2)CCN(C)C1	63%

Proceeding to the next molecule to report its inhibition at 0.03 µM.
## Task Param item = Cc1ccc2c(c1)c1c(n2CC(N)c2ccncc2)CCN(C)CC1 (single isomer, unassigned) [154b] ; retrieve measured inhibition at 0.03 µM.
## Result 80%
